- Test system: Trypanosoma brucei brucei
- assay-protocol: Trypanocidal activity against bloodstream form of Trypanosoma brucei brucei 427 after 72 hrs by Alamar blue assay
- Format: functional, organism-based
- test-context: Trypanosoma brucei, 427, 72 h
quantity-name: EC50 (µM)
Report the value in µM with no unit label.

CCCCc1cc(C(=O)OCC)c(NC(=O)c2ccc([N+](=O)[O-])o2)s1    0.125
CCc1cc(C(N)=O)c(NCc2ccc([N+](=O)[O-])o2)s1    5.3
O=[N+]([O-])c1ccc(CNc2ccccc2)o1    113

Let us examine a further case.
Let me check: O=C(NCc1cccc(C(F)(F)F)c1)c1ccc([N+](=O)[O-])o1 , system Trypanosoma brucei brucei, measured EC50 is 0.0174
